# method notes: in vitro
# measurement setup: isolated enzyme chymotrypsin, pH 7.4
reported metric: half-life at 0.1 mM (min)
Express the result in min but write the number alone.

QUERY: half-life at 0.1 mM for Ac-PESILDEHVQRVMK-NH2 [Axin (469–482)] ?
RESULT: 9
